# Measured on: T1, Human CD73 on cells (MDA-MB-231, Jurkat CD73 knock-in, NCI-H322) (human, UniProt P21589 27-549)
# T1 construct: GPI-anchored native protein; also called native human CD73
# T1 sequence: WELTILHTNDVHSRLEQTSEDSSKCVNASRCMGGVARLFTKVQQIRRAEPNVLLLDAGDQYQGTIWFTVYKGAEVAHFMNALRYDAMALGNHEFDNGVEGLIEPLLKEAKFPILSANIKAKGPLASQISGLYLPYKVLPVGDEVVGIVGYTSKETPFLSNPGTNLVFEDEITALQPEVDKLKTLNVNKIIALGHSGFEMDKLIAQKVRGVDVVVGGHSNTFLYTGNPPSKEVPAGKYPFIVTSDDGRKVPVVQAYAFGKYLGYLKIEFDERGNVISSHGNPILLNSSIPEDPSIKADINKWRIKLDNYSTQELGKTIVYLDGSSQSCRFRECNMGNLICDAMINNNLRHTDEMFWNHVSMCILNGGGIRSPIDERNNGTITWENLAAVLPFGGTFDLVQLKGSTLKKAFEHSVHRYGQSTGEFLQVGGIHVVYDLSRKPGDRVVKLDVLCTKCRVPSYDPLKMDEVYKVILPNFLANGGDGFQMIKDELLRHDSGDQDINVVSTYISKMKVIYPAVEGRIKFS
# Protocol summary: FACS on MDA-MB-231 cells, vs CD730002SGMY
Measured metric: FACS signal, fold improvement over parental antibody (fold)

- Binder: "CD730002SGMY CDRH2 A60G (Fab, V domains shown, format in the FACS read-out not clearly stated) VH: EVQLLESGGGLVQPGGSLRLSCAASGFTFSSYAMSWVRQAPGKGLEWVSAISGSGGSTYYGDSVKGRFTISRDNSKNTLYLQMNSLRAEDTAVYYCARDKGYYWYMDVWGQGTMVTVSS VL: QSVLTQPPSVSVSPGQTASITCSGDKVGDKYASWYQQKPGQSPVLVIYEDTKRPSGIPERFSGSNSGNTATLTISGTQAMDEADYYCQAWDTSFWVFGGGTKLTVL"
  Readout units: "fold"
  Obs value: 1.3

Cited source for all entries: patent US20230340152A1
